System: FluA/LA
Assay: microbe, parasite or virus in culture
Assay type: cell-based, influenza A virus
Settings: Influenza A virus, in Gallus gallus; read-out: Median Inhibiting Concentration (IC50), FluA/LA
experimentalEndpoint: IC50

Sample records with IC50:
>  <compound>
NC12CC3CC(CC(C3)C1)C2 [Amantadine, reference compound]

>  <targetDesc>
FluA/LA

>  <observed>
0.16 µg/mL

$$$$
>  <compound>
CC(Cc1ccccc1)(C(=NC#N)NCCc1ccccc1)c1ccccn1 (stereo not shown)

>  <targetDesc>
FluA/LA

>  <observed>
> 16 µg/mL

$$$$
>  <compound>
CC(Cc1ccccc1)(C(=NC#N)NCc1ccco1)c1ccccn1 (stereo not shown)

>  <targetDesc>
FluA/LA

>  <observed>
> 16 µg/mL

$$$$

Consider the compound NC(=O)c1ncn([C@@H]2O[C@H](CO)[C@@H](O)[C@H]2O)n1 [Ribavirin, reference compound] tested on FluA/LA; state its IC50.
> 16 µg/mL
